ASSAYED SYSTEM: human CD74, naturally expressed on cells (Raji, Daudi, M4A4, NCI-H747 cells; human tonsil tissue) (human) (UniProt P04233)
ASSAY REMARKS: cell-based or functional assay
Response field label takes T when IC50 of killing of M4A4 cells is strictly below 0.3 µg/mL and F in all other cases.

Hello, is IC50 of killing of M4A4 cells of the following binder strictly smaller than 0.3 µg/mL? HuMab-CD74-011-mcMMAF (antibody, IgG1, V domains shown, drug-linker mcMMAF alkylated to the cysteines of the reduced antibody (DAR 3.9 by HIC), Antibody-drug conjugate of HuMab-CD74-011 (IgG1,kappa)) VH: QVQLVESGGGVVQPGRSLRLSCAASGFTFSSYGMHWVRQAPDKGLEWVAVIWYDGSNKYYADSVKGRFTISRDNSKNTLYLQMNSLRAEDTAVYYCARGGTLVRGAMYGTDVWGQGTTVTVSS VL: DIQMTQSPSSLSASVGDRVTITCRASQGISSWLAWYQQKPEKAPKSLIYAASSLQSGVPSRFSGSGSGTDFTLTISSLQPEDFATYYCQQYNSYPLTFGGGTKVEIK T

Hello, is IC50 of killing of M4A4 cells of the following binder strictly smaller than 0.3 µg/mL? HuMab-CD74-005-mcMMAF (antibody, IgG1, V domains shown, drug-linker mcMMAF alkylated to the cysteines of the reduced antibody (DAR 3.9-4.0), Antibody-drug conjugate of HuMab-CD74-005 (IgG1,kappa); also called mcMMAF-conjugate of HuMab-CD74-005) VH: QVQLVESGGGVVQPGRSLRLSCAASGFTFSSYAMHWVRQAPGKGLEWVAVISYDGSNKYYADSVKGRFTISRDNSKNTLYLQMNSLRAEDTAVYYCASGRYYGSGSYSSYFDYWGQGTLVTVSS VL: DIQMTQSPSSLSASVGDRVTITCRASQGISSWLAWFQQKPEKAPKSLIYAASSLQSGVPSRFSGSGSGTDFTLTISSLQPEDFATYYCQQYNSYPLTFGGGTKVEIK F

Hello, is IC50 of killing of M4A4 cells of the following binder strictly smaller than 0.3 µg/mL? HuMab-CD74-011-vcMMAE (antibody, IgG1, V domains shown, drug-linker vcMMAE alkylated to the cysteines of the reduced antibody (DAR 3.8-3.9), Antibody-drug conjugate of HuMab-CD74-011 (IgG1,kappa); also called vcMMAE-conjugated HuMab-CD74-011) VH: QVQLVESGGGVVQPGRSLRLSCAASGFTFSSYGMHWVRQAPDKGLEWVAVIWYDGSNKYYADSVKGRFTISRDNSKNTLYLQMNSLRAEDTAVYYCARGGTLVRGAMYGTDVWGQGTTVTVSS VL: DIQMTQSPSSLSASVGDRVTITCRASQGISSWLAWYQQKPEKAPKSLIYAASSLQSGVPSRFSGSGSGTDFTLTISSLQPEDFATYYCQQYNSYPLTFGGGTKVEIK F

Hello, is IC50 of killing of M4A4 cells of the following binder strictly smaller than 0.3 µg/mL? HuMab-CD74-006-mcMMAF (antibody, IgG1, V domains shown, drug-linker mcMMAF alkylated to the cysteines of the reduced antibody (DAR 3.7-4.1), Antibody-drug conjugate of HuMab-CD74-006 (IgG1,kappa)) VH: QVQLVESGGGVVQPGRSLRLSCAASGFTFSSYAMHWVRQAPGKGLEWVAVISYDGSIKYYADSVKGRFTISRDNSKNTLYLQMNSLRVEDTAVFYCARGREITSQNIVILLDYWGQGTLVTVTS VL: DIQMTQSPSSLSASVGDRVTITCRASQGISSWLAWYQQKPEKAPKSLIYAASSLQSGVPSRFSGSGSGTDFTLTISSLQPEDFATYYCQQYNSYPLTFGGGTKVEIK T

Hello, is IC50 of killing of M4A4 cells of the following binder strictly smaller than 0.3 µg/mL? HuMab-CD74-006-vcMMAE (antibody, IgG1, V domains shown, drug-linker vcMMAE alkylated to the cysteines of the reduced antibody (DAR 4.0), Antibody-drug conjugate of HuMab-CD74-006 (IgG1,kappa); also called vcMMAE-conjugated HuMab-CD74-006) VH: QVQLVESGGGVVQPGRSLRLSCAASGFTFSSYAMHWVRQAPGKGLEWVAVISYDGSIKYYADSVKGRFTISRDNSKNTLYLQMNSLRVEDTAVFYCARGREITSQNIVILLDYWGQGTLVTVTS VL: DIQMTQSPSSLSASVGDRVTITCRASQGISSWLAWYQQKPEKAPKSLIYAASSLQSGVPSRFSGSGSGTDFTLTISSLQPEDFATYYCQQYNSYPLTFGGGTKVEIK T

Hello, is IC50 of killing of M4A4 cells of the following binder strictly smaller than 0.3 µg/mL? HuMab-CD74-005-vcMMAE (antibody, IgG1, V domains shown, drug-linker vcMMAE alkylated to the cysteines of the reduced antibody (DAR 3.9-4.0), Antibody-drug conjugate of HuMab-CD74-005 (IgG1,kappa); also called vcMMAE-conjugate of HuMab-CD74-005) VH: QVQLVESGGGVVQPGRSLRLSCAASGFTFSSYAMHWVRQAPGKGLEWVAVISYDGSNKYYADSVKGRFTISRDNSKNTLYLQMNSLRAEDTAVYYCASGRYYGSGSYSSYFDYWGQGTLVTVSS VL: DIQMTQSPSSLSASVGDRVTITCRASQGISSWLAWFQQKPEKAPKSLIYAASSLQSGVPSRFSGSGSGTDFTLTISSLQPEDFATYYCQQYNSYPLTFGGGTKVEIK F
